STUDY TARGET: PfPMV (Plasmodium falciparum, UniProt Q8I6Z5)
Sequence (Q8I6Z5 34-590): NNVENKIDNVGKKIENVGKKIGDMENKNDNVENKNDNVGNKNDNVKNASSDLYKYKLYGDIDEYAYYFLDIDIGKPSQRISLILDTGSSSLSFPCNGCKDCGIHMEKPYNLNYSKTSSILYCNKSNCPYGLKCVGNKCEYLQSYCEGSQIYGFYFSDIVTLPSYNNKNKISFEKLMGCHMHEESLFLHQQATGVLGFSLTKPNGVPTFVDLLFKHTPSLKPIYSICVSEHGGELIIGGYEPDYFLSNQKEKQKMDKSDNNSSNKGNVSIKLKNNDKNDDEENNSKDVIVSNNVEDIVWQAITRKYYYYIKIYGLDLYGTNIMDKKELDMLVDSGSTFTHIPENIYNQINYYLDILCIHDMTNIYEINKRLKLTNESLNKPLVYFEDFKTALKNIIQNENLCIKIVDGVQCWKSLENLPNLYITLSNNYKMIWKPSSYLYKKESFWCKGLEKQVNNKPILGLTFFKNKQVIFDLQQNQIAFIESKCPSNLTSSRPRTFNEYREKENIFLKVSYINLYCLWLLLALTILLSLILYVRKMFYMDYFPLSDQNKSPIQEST
EXPERIMENTAL DETAILS: PEXEL cleavage assay with immunopurified PfPMVHA and fluorogenic KAHRP PEXEL peptide
Assay type: biochemical
CONDITION DETAILS: IC50 PfPMVHA, PEXEL cleavage
READOUT KIND: IC50 (nM)
Give the number; nM is assumed, so skip it.

## Task Look up IC50 with PfPMV (Plasmodium falciparum, UniProt Q8I6Z5) for this compound: `CC(C)C[C@H](NC(=O)[C@@H](NC(=O)[C@H](CCCNC(=N)N)NS(=O)(=O)Cc1ccccc1)C(C)C)[C@@H](O)CC(=O)NCCc1ccccc1`
## Result 20

###

STUDY TARGET: PvPMV (Plasmodium vivax)
Sequence (A5K302 35-536): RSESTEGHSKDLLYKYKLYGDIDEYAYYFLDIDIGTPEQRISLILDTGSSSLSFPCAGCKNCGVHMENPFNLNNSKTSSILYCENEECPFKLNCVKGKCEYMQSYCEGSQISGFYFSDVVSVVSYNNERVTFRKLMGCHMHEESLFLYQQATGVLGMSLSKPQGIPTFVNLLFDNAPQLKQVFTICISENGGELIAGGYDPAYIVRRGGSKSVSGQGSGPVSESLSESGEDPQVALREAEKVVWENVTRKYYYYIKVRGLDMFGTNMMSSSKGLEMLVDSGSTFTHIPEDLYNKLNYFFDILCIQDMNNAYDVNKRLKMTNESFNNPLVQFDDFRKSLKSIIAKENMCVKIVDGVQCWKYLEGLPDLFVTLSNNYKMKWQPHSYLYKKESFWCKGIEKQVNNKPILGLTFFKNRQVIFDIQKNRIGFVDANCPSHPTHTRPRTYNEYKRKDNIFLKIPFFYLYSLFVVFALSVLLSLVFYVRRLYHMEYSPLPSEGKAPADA
Where a name gives a salt, the structure may show the parent alone.
READOUT KIND: IC50 (nM)
Give the number; nM is assumed, so skip it.

## Task Look up IC50 with PvPMV (Plasmodium vivax) for this compound: CC[C@H](C)[C@H](NC(=O)[C@@H](NC(=O)[C@H](CCCNC(=N)N)NS(=O)(=O)Cc1ccccc1)C(C)C)[C@@H](O)CC(=O)NCCc1ccccc1 [compound 025, PhCH2SO2Arg-Val-AHMHpA-NH(CH2)2Ph . TFA]
## Result 1770

###

STUDY TARGET: Cathepsin D (Homo sapiens, UniProt P07339)
Sequence (P07339 65-412): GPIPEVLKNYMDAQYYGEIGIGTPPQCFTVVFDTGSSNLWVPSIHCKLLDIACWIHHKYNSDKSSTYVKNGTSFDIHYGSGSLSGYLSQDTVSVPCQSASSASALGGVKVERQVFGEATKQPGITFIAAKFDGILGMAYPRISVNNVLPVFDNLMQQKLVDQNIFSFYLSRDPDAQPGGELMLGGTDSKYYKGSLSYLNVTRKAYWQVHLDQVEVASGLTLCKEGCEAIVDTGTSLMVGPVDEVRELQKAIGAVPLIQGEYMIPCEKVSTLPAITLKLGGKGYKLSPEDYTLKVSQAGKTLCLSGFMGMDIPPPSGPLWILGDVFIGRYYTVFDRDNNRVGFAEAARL
EXPERIMENTAL DETAILS: Off-target activity against human aspartyl protease Cathepsin D
Format: biochemical
CONDITION DETAILS: read-out: IC50 CathD
READOUT KIND: pIC50
Conceptually, pIC50 converts a concentration in mol/L into minus its log10.

## Task Need pIC50 of CC(C)C[C@H](NC(=O)[C@@H](NC(=O)[C@H](CCCNC(=N)N)NS(=O)(=O)Cc1ccccc1)C(C)C)[C@@H](O)CC(=O)NCCc1ccccc1 [compound 916] , thanks.
## Result 4.60

###

Tested on: HEpG2 cells
EXPERIMENTAL DETAILS: Toxicity against human HEpG2 cells
Type: cell-based
CONDITION DETAILS: toxicity against human cell line
pIC50: −log10 of the molar value. Counter-ions that a name gives are not always drawn.
READOUT KIND: pIC50

## Task Need pIC50 of CC[C@H](C)[C@H](NC(=O)[C@@H](NC(=O)[C@H](CCCNC(=N)N)NS(=O)(=O)Cc1ccccc1)C(C)C)[C@@H](O)CC(=O)NCCc1ccccc1 [compound 025, PhCH2SO2Arg-Val-AHMHpA-NH(CH2)2Ph . TFA] , thanks.
## Result < 4.00

## Task And CC(C)C[C@H](NC(=O)[C@@H](NC(=O)[C@H](CCCCN)NS(=O)(=O)Cc1ccccc1)C(C)C)[C@@H](O)CC(=O)NCCc1ccccc1 [compound 024] ?
## Result < 4.00

## Task And CC(C)C[C@H](NC(=O)[C@@H](NC(=O)[C@H](CCCNC(=N)N)NS(=O)(=O)Cc1ccccc1)C(C)C)[C@@H](O)CC(=O)NCCc1ccccc1 [compound 916] ?
## Result < 4.00

###

STUDY TARGET: beta-secretase (BACE-1) (Homo sapiens, UniProt P56817)
Sequence (P56817 46-501): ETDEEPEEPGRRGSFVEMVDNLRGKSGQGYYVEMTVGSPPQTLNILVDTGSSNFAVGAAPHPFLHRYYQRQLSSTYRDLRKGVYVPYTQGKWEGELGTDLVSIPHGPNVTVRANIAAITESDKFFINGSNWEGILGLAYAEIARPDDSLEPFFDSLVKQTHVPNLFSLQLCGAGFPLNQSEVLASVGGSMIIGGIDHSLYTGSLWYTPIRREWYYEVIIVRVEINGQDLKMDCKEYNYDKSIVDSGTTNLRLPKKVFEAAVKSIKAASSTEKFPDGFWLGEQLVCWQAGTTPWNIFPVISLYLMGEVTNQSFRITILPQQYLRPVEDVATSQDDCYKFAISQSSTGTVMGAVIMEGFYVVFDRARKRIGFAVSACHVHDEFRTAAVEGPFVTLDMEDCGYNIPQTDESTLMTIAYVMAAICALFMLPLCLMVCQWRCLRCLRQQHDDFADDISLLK
READOUT KIND: IC50

## Task Look up IC50 with beta-secretase (BACE-1) (Homo sapiens, UniProt P56817) for this compound: `CC(C)C[C@H](NC(=O)[C@@H](NC(=O)[C@H](CCCNC(=N)N)NS(=O)(=O)Cc1ccccc1)C(C)C)[C@@H](O)CC(=O)NCCc1ccccc1`
## Result > 100 µM

Ref: paper PMC4077696
